meta.source: patent US20230044649A1

Experiment Notes: physchem
Experimental Parameters: 20 °C, pH 1.2, simulated gastric fluid
Quantity Name: solubility (µg/mL)
All answers are understood in µg/mL, so give the number only.

Q. Return solubility (reported value) for this compound: CC(C)Cc1ccc(C(C)C(=O)O)cc1 (stereo not shown)
A. 22.5

---

Experiment Notes: physchem
Experimental Parameters: 20 °C, water
Quantity Name: solubility (µg/mL)
Could you give me the number in µg/mL? Just the number is fine.

Q. Give reported solubility value for O=C1OC2(c3ccc(O)cc3Oc3cc(O)ccc32)c2ccccc21 [fluorescein]
A. 10

---

Experiment Notes: Solubility at pH 7.4
Assay type: physicochemical
Quantity Name: solubility (µg/mL)
Write the answer as a number in µg/mL, unit excluded.

Q. Complete the entry with solubility for Cc1ccc(S(=O)(=O)/C=C/C#N)cc1 [BAY 11-7082]
A. 29.2
